Test target: MST2 (Homo sapiens, UniProt Q13188)
Sequence (Q13188 1-491): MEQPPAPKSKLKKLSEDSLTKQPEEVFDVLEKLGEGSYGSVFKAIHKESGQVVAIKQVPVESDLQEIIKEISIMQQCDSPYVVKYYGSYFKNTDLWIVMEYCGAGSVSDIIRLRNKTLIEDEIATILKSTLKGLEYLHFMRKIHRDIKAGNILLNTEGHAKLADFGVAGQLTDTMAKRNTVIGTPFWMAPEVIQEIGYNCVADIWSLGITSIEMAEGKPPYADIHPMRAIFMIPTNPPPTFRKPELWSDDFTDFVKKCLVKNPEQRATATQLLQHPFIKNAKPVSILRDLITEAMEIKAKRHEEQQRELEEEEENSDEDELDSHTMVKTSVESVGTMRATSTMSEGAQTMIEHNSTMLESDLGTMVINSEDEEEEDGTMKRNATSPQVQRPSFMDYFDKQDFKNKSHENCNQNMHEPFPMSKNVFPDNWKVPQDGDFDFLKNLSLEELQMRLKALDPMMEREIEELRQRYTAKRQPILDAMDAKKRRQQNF
Measurement context: binder
Parameter: dTm MST2 (°C)
One number for each entry, in °C.

These recorded examples may help you get a feel for the data.
Smiles: CNc1ncc2cc(-c3ccc(-c4cccc(C)n4)cc3Cl)c(=O)n(CCO)c2n1
dTm MST2, °C: 9.0
//
Smiles: CNc1ncc2cc(-c3ccc(-c4cccc(C)n4)cc3Cl)c(=O)n(C)c2n1
dTm MST2, °C: 1.3
//
Smiles: CNc1ncc2cc(-c3ccc(-c4cccc(C)n4)cc3Cl)c(=O)n(CCN)c2n1
dTm MST2, °C: 1.6

Report dTm MST2 for every entry below.
1. CNc1ncc2cc(-c3ccc(-c4cccc(C)n4)cc3Cl)c(=O)n(CCCCCO)c2n1
2. CNc1ncc2cc(-c3ccc(-c4cccc(C)n4)cc3Cl)c(=O)n(CCCCCN)c2n1
3. CNc1ncc2cc(-c3ccc(-c4cccc(C)n4)cc3Cl)c(=O)n(CCCO)c2n1
4. CNc1ncc2cc(-c3ccc(-c4cccc(C)n4)cc3Cl)c(O)nc2n1
5. CNc1ncc2cc(-c3ccc(-c4cccc(C)n4)cc3Cl)c(=O)n(CCCCN)c2n1

### Response
1. 6.1
2. 10.7
3. 6.3
4. 0.3
5. 7.9
